Cited source for all entries: patent US11702429B2

Record form. Attribute: IC50. Fill in for each entry.
# target_or_test_system: mTORC1 (Homo sapiens, UniProt P42345+P62942)
# Construct: endogenous in cells; host or cells: PC3 cells (human prostate adenocarcinoma)
# procedure_text: Inhibition assay for mTORC1: phosphorylation of pS6K at Thr389, AlphaLISA in PC3 cells
# Type: cell-based
# measurement_parameters: read-out: pIC50 mTORC1 (converted)
# Protocol: The IC50s of the inhibition of mTORC1 and mTORC2 were determined in vitro by determining the phosphorylation of pS6K at position Thr389 (mTORC1 inhibition) and pAkt at Ser473 (mTORC2 inhibition). In vitro studies were performed with AlphaLISA® technology using PC3 cells (Prostate Adenocarcinoma; Human (Homo sapiens)). The cells were seeded in 96 well plates and were treated for 24 hours with the different compounds. […]

Worked cases, answers included:
[[record]]
compound = "COC1C[C@@H]2CC[C@@H](C)[C@@](O)(O2)C(=O)C(=O)N2CCCCC2C(=O)O[C@H]([C@H](C)C[C@@H]2CC[C@@H](OC(=O)NCCC3CC3)[C@H](OC)C2)CC(=O)[C@H](C)/C=C(\\C)[C@@H](O)[C@@H](OC)C(=O)[C@H](C)C[C@H](C)/C=C/C=C/C=C/1C (stereo partly shown) [Compound 337]"
target_or_test_system = "mTORC1 (Homo sapiens, UniProt P42345+P62942)"
measured_result = "< 0.316 nM"

[[record]]
compound = "CO[C@@H]1C[C@H](C[C@@H](C)[C@@H]2CC(=O)[C@H](C)/C=C(\\C)[C@@H](O)[C@@H](OC)C(=O)[C@H](C)C[C@H](C)/C=C/C=C/C=C(\\C)C(OCCC3CCOCC3)C[C@@H]3CC[C@@H](C)[C@@](O)(O3)C(=O)C(=O)N3CCCCC3C(=O)O2)CC[C@H]1O (stereo partly shown) [Compound 213]"
target_or_test_system = "mTORC1 (Homo sapiens, UniProt P42345+P62942)"
measured_result = "0.316 to 3.16 nM"

[[record]]
compound = "COC1C[C@@H]2CC[C@@H](C)[C@@](O)(O2)C(=O)C(=O)N2CCCCC2C(=O)O[C@H]([C@H](C)C[C@@H]2CC[C@@H](OCCN3CCC(O)CC3)[C@H](OC)C2)CC(=O)[C@H](C)/C=C(\\C)[C@@H](O)[C@@H](OC)C(=O)[C@H](C)C[C@H](C)/C=C/C=C/C=C/1C (stereo partly shown) [Compound 353]"
target_or_test_system = "mTORC1 (Homo sapiens, UniProt P42345+P62942)"
measured_result = "< 0.316 nM"

[[record]]
compound = "CO[C@@H]1C[C@H](C[C@@H](C)[C@@H]2CC(=O)[C@H](C)/C=C(\\C)[C@@H](O)[C@@H](OC)C(=O)[C@H](C)C[C@H](C)/C=C/C=C/C=C(\\C)C(c3ccc(C)s3)C[C@@H]3CC[C@@H](C)[C@@](O)(O3)C(=O)C(=O)N3CCCCC3C(=O)O2)CC[C@H]1O (stereo partly shown) [Compound 202]"
target_or_test_system = "mTORC1 (Homo sapiens, UniProt P42345+P62942)"
measured_result = "> 3.16 nM"

[[record]]
compound = "COCCOCCNC(=O)O[C@@H]1CC[C@@H](C[C@@H](C)[C@@H]2CC(=O)[C@H](C)/C=C(\\C)[C@@H](O)[C@@H](OC)C(=O)[C@H](C)C[C@H](C)/C=C/C=C/C=C(\\C)C(OC)C[C@@H]3CC[C@@H](C)[C@@](O)(O3)C(=O)C(=O)N3CCCCC3C(=O)O2)C[C@H]1OC (stereo partly shown) [Compound 346]"
target_or_test_system = "mTORC1 (Homo sapiens, UniProt P42345+P62942)"
measured_result = "< 0.316 nM"

[[record]]
compound = "COC1C[C@@H]2CC[C@@H](C)[C@@](O)(O2)C(=O)C(=O)N2CCCCC2C(=O)O[C@H]([C@H](C)C[C@@H]2CC[C@@H](n3ncnn3)[C@H](OC)C2)CC(=O)[C@H](C)/C=C(\\C)[C@@H](O)[C@@H](OC)C(=O)[C@H](C)C[C@H](C)/C=C/C=C/C=C/1C (stereo partly shown) [Compound 307]"
target_or_test_system = "mTORC1 (Homo sapiens, UniProt P42345+P62942)"
measured_result = "< 0.316 nM"


Would you be so kind as to report IC50 for each listed record?
1. COC1C[C@@H]2CC[C@@H](C)[C@@](O)(O2)C(=O)C(=O)N2CCCCC2C(=O)O[C@H]([C@H](C)C[C@@H]2CC[C@@H](OC(=O)NCCCN3CCCCC3)[C@H](OC)C2)CC(=O)[C@H](C)/C=C(\C)[C@@H](O)[C@@H](OC)C(=O)[C@H](C)C[C@H](C)/C=C/C=C/C=C/1C (stereo partly shown) [Compound 366]
2. COC1C[C@@H]2CC[C@@H](C)[C@@](O)(O2)C(=O)C(=O)N2CCCCC2C(=O)O[C@H]([C@H](C)C[C@@H]2CC[C@@H](OCCCN3CCN(C)CC3)[C@H](OC)C2)CC(=O)[C@H](C)/C=C(\C)[C@@H](O)[C@@H](OC)C(=O)[C@H](C)C[C@H](C)/C=C/C=C/C=C/1C (stereo partly shown) [Compound 332]
3. COC1C[C@@H]2CC[C@@H](C)[C@@](O)(O2)C(=O)C(=O)N2CCCCC2C(=O)O[C@H]([C@H](C)C[C@@H]2CC[C@@H](OC(=O)NCCN3CCN(C)CC3)[C@H](OC)C2)CC(=O)[C@H](C)/C=C(\C)[C@@H](O)[C@@H](OC)C(=O)[C@H](C)C[C@H](C)/C=C/C=C/C=C/1C (stereo partly shown) [Compound 367]
4. CO[C@@H]1C[C@H](C[C@@H](C)[C@@H]2CC(=O)[C@H](C)/C=C(\C)[C@@H](O)[C@@H](OC)C(=O)[C@H](C)C[C@H](C)/C=C/C=C/C=C(\C)C(OC3CC3)C[C@@H]3CC[C@@H](C)[C@@](O)(O3)C(=O)C(=O)N3CCCCC3C(=O)O2)CC[C@H]1O (stereo partly shown) [Compound 209]
5. COC1C[C@@H]2CC[C@@H](C)[C@@](O)(O2)C(=O)C(=O)N2CCCCC2C(=O)O[C@H]([C@H](C)C[C@@H]2CC[C@@H](OC(=O)N(CCO)CCO)[C@H](OC)C2)CC(=O)[C@H](C)/C=C(\C)[C@@H](O)[C@@H](OC)C(=O)[C@H](C)C[C@H](C)/C=C/C=C/C=C/1C (stereo partly shown) [Compound 357]
6. COC1C[C@@H]2CC[C@@H](C)[C@@](O)(O2)C(=O)C(=O)N2CCCCC2C(=O)O[C@H]([C@H](C)C[C@@H]2CC[C@@H](OCCCN3CCCCC3)[C@H](OC)C2)CC(=O)[C@H](C)/C=C(\C)[C@@H](O)[C@@H](OC)C(=O)[C@H](C)C[C@H](C)/C=C/C=C/C=C/1C (stereo partly shown) [Compound 341]
7. CO[C@@H]1C[C@H](C[C@@H](C)[C@@H]2CC(=O)[C@H](C)/C=C(\C)[C@@H](O)[C@@H](OC)C(=O)[C@H](C)C[C@H](C)/C=C/C=C/C=C(\C)C(OCCCCO)C[C@@H]3CC[C@@H](C)[C@@](O)(O3)C(=O)C(=O)N3CCCCC3C(=O)O2)CC[C@H]1O (stereo partly shown) [Compound 221]

1: > 3.16 nM; 2: < 0.316 nM; 3: < 0.316 nM; 4: < 0.316 nM; 5: < 0.316 nM; 6: < 0.316 nM; 7: < 0.316 nM

====

Task for the reader: assign each of the following compounds its reported IC50.
# target_or_test_system: mTORC2 (Homo sapiens, UniProt P42345+P62942)
# Construct: endogenous in cells; host or cells: PC3 cells (human prostate adenocarcinoma)
# Sequence (P62942 2-108 limits assumed, other chains not shown): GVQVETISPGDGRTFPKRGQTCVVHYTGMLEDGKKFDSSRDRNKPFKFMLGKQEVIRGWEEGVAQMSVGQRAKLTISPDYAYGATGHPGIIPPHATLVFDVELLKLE
# procedure_text: Inhibition assay for mTORC2: phosphorylation of pAkt at Ser473, AlphaLISA in PC3 cells
# Assay type: cell-based
# measurement_parameters: read-out: pIC50 mTORC2 (converted)
# Description: The IC50s of the inhibition of mTORC1 and mTORC2 were determined in vitro by determining the phosphorylation of pS6K at position Thr389 (mTORC1 inhibition) and pAkt at Ser473 (mTORC2 inhibition). In vitro studies were performed with AlphaLISA® technology using PC3 cells (Prostate Adenocarcinoma; Human (Homo sapiens)). The cells were seeded in 96 well plates and were treated for 24 hours with the different compounds. […]

# count of solved cases: 2
[[record]]
compound = "CO[C@@H]1C[C@H](C[C@@H](C)[C@@H]2CC(=O)[C@H](C)/C=C(\\C)[C@@H](O)[C@@H](OC)C(=O)[C@H](C)C[C@H](C)/C=C/C=C/C=C(\\C)C(OCCCc3ccccc3)C[C@@H]3CC[C@@H](C)[C@@](O)(O3)C(=O)C(=O)N3CCCCC3C(=O)O2)CC[C@H]1O (stereo partly drawn)"
measured_result = "1000 to 10000 nM"

[[record]]
compound = "COC1C[C@@H]2CC[C@@H](C)[C@@](O)(O2)C(=O)C(=O)N2CCCCC2C(=O)O[C@H]([C@H](C)C[C@@H]2CC[C@@H](OCCCN3CCN(C)CC3)[C@H](OC)C2)CC(=O)[C@H](C)/C=C(\\C)[C@@H](O)[C@@H](OC)C(=O)[C@H](C)C[C@H](C)/C=C/C=C/C=C/1C (stereo partly drawn)"
measured_result = "< 1000 nM"


Let us examine a further case.
Dear colleague, please send me the reported IC50 for COC1C[C@@H]2CC[C@@H](C)[C@@](O)(O2)C(=O)C(=O)N2CCCCC2C(=O)O[C@H]([C@H](C)C[C@@H]2CC[C@@H](OC(=O)NCCOCCOCCOCCOCCO)[C@H](OC)C2)CC(=O)[C@H](C)/C=C(\C)[C@@H](O)[C@@H](OC)C(=O)[C@H](C)C[C@H](C)/C=C/C=C/C=C/1C (stereo partly drawn) when you can.
< 1000 nM
